# assay.overview: Inhibition of CYP3A4.18 (unknown origin)-mediated testosterone 6beta-hydroxylation incubated for 10 mins prior to NADPH addition measured after 20 mins by HPLC-UV analysis
endpoint: pKi
Just the number, please; pKi means minus log10 of the concentration in mol/L.

Q: Name the reported pKi value associated with the compound CCC(C)n1ncn(-c2ccc(N3CCN(c4ccc(OCC5COC(Cn6cncn6)(c6ccc(Cl)cc6Cl)O5)cc4)CC3)cc2)c1=O (stereo unspecified)
Result: 7.09

* * *

# Test system: CYP3A4.7 and CYP3A4.1
# assay.overview: Ratio of Ki for CYP3A4.7 (unknown origin) to Ki for CYP3A4.1 (unknown origin)
# Assay type: ADME
# setup.conditions: human
endpoint: selectivity ratio

Q: Name the reported selectivity ratio value associated with the molecule CCC(C)n1ncn(-c2ccc(N3CCN(c4ccc(OCC5COC(Cn6cncn6)(c6ccc(Cl)cc6Cl)O5)cc4)CC3)cc2)c1=O (stereo unspecified)
Result: 2.4

* * *

# assay.overview: Inhibition of CYP3A4.7 (unknown origin)-mediated testosterone 6beta-hydroxylation incubated for 10 mins prior to NADPH addition measured after 20 mins by HPLC-UV analysis
endpoint: pKi
Just the number, please; pKi means minus log10 of the concentration in mol/L.

Q: Name the reported pKi value associated with the compound CCC(C)n1ncn(-c2ccc(N3CCN(c4ccc(OCC5COC(Cn6cncn6)(c6ccc(Cl)cc6Cl)O5)cc4)CC3)cc2)c1=O (stereo unspecified)
Result: 6.75

* * *

# assay.overview: Inhibition of CYP3A4.16 (unknown origin)-mediated testosterone 6beta-hydroxylation incubated for 10 mins prior to NADPH addition measured after 20 mins by HPLC-UV analysis
endpoint: pKi
Just the number, please; pKi means minus log10 of the concentration in mol/L.

Q: Name the reported pKi value associated with the compound CCC(C)n1ncn(-c2ccc(N3CCN(c4ccc(OCC5COC(Cn6cncn6)(c6ccc(Cl)cc6Cl)O5)cc4)CC3)cc2)c1=O (stereo unspecified) [ITRACONAZOLE]
Result: 7.39

* * *

# System: CYP3A4.2 and CYP3A4.1
# assay.overview: Ratio of Ki for CYP3A4.2 (unknown origin) to Ki for CYP3A4.1 (unknown origin)
# Assay type: ADME
# setup.conditions: human
endpoint: selectivity ratio

Q: Name the reported selectivity ratio value associated with the compound CCC(C)n1ncn(-c2ccc(N3CCN(c4ccc(OCC5COC(Cn6cncn6)(c6ccc(Cl)cc6Cl)O5)cc4)CC3)cc2)c1=O (stereo unspecified)
Result: 0.59

Recorded values, source ChEMBL document CHEMBL3526144.
